// values below are reported viability, T/C
tested on: 596521-263-R-J1-PDC complex spheroid growth; experiment: Anticancer human tumor 596521-263-R-J1-PDC patient-derived soft tissue sarcoma cell line growth inhibition [Asc]; settings: second compound 0.0316 µM; first compound 10 µM; hits give low values;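 further: spheroids exposed to compounds for 7 days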
Quick reminder: number only, in %, skip the unit.

Below, 2 compounds whose answers are already recorded.
O=C(c1cc(Cc2n[nH]c(=O)c3ccccc23)ccc1F)N1CCN(C(=O)C2CC2)CC1 + CNC(C)C(=O)NC1CN(S(=O)(=O)c2cccc(S(=O)(=O)N3CCC4CCC(C(=O)NC(c5ccccc5)c5ccccc5)N4C(=O)C(NC(=O)C(C)NC)C3)c2)CCC2CCC(C(=O)NC(c3ccccc3)c3ccccc3)N2C1=O    42.4
C#Cc1c(F)ccc2cc(O)cc(-c3ncc4c(N5CC6CCC(C5)N6)nc(OCC56CCCN5CC(F)C6)nc4c3F)c12 (stereo not drawn) + Cc1c(S(C)(=O)=O)c(-c2cc(F)cc(N3CCN(c4ccc(NS(=O)(=O)c5ccc(NC(CCN6CCC(C(=O)OCCCP(=O)(O)O)CC6)CSc6ccccc6)c(S(=O)(=O)C(F)(F)F)c5)cc4)CC3)c2)c(-c2ccc(Cl)cc2)n1C(C)C    85.7

Query compound follows.
// viability, T/C (596521-263-R-J1-PDC complex spheroid growth) for C=CC(=O)N1CCN(c2nc(=O)n(-c3c(C)ccnc3C(C)C)c3nc(-c4c(O)cccc4F)c(F)cc23)C(C)C1 (stereo not drawn) + Cc1c(S(C)(=O)=O)c(-c2cc(F)cc(N3CCN(c4ccc(NS(=O)(=O)c5ccc(NC(CCN6CCC(C(=O)OCCCP(=O)(O)O)CC6)CSc6ccccc6)c(S(=O)(=O)C(F)(F)F)c5)cc4)CC3)c2)c(-c2ccc(Cl)cc2)n1C(C)C = 65.8
